Ok so here's the combined literature set: pIC50 for Cytosolic phospholipase A2 (Homo sapiens).
# log scale: pIC50 equals minus log10 of the concentration in mol/L

Below, each entry is followed by its recorded pIC50 result.
Cc1c(C(c2ccccc2)c2ccccc2)c2ccccc2n1CCOc1ccc(C(=O)O)cc1: 5.60
O=C(O)c1ccc(OCCc2c(CCNS(=O)(=O)Cc3cc(F)cc(F)c3)n(C(c3ccccc3)c3ccccc3)c3ccc(Cl)cc23)cc1: 6.48
O=C1NC(=O)/C(=C/c2ccc(C(=O)NC[C@@H]3CC(OCc4ccc(F)cc4F)CN3S(=O)(=O)Cc3ccc(Br)cc3)cc2)S1 (stereo partly drawn): 5.09
O=C1NC(=O)C(=Cc2ccc(NC(=O)[C@@H]3C[C@H](SCc4ccc(C(F)(F)F)cc4C(F)(F)F)CN3C(=O)c3ccccc3)cc2)S1: 5.32
Cc1cccc(Cl)c1S(=O)(=O)NCCc1c(CCCc2ccc(C(=O)O)cc2)c2cc(Cl)ccc2n1C(c1ccccc1)c1ccccc1: 6.85

The compound listed as O=C1NC(=S)SC1=Cc1ccc(NC(=O)[C@@H]2C[C@H](SCc3ccccc3)CN2C(=O)c2ccccc2)cc1 shows pIC50 equal to 5.14
